target: Nitric oxide synthase 1 (Rattus norvegicus); format: tissue-based, Cerebellum; note: in other assays of this panel Not Active means under 50% inhibition at 10 µM
Sequence (P29476 whole entry): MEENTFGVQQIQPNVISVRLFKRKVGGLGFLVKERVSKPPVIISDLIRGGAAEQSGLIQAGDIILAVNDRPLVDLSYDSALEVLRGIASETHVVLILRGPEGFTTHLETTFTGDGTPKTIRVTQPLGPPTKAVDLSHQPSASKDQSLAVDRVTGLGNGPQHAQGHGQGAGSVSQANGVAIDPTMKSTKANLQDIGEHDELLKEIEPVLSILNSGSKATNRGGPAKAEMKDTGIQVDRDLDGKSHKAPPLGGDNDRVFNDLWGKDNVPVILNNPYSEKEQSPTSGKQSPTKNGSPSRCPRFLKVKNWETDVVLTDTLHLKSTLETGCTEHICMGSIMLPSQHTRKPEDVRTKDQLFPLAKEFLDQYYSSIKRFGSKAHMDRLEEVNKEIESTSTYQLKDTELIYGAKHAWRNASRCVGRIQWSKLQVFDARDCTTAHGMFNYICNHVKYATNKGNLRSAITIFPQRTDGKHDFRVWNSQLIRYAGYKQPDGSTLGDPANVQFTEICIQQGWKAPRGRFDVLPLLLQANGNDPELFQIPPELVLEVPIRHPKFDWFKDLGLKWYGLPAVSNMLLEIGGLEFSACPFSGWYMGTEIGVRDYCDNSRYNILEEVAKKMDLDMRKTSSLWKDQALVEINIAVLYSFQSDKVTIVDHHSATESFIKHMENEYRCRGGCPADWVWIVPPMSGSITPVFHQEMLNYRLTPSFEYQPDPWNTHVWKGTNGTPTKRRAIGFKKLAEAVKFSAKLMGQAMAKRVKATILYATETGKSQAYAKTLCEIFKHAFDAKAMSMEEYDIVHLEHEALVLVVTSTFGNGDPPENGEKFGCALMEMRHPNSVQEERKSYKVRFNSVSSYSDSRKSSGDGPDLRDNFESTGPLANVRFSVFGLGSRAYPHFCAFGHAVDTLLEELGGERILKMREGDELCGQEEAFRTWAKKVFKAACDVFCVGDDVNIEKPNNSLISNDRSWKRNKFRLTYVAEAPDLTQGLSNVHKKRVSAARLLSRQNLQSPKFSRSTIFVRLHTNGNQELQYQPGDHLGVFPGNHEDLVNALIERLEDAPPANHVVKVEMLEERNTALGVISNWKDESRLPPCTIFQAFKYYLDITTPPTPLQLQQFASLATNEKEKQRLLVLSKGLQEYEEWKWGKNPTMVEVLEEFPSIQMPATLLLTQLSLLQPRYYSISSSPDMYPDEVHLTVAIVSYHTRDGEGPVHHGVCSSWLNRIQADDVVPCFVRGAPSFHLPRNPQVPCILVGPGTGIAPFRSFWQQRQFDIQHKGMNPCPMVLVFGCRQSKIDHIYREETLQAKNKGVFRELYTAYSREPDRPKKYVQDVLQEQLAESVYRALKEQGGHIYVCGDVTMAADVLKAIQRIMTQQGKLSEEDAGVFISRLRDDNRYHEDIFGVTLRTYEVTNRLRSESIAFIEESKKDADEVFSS
value type: IC50

molecule="Cc1nc2n(c(=O)c1CCN1CCC(c3noc4cc(F)ccc34)CC1)CCCC2 [RISPERIDONE]" result="Not Active"
molecule="Nc1ncn([C@@H]2O[C@H](CO)[C@@H](O)[C@H]2O)c(=O)n1 [AZACITIDINE]" result="Not Active"
molecule="CCOC(=O)N1CCC(=C2c3ccc(Cl)cc3CCc3cccnc32)CC1 [LORATADINE]" result="Not Active"
molecule="CNCCCN1c2ccccc2CCc2ccccc21 [DESIPRAMINE]" result="Not Active"
molecule="CSc1ccc(/C=C2/C(C)=C(CC(=O)O)c3cc(F)ccc32)cc1 [SULINDAC SULFIDE]" result="Not Active"
molecule="OCCN(CCO)c1nc(N2CCCCC2)c2nc(N(CCO)CCO)nc(N3CCCCC3)c2n1 [DIPYRIDAMOLE]" result="Not Active"
molecule="NC[C@H]1CC[C@H](C(=O)O)CC1 [TRANEXAMIC ACID]" result="Not Active"
molecule="CC/C(=C(\\c1ccccc1)c1ccc(OCCN(C)C)cc1)c1ccccc1 [TAMOXIFEN]" result="Not Active"
molecule="CCCCc1oc2ccccc2c1C(=O)c1cc(I)c(OCCN(CC)CC)c(I)c1 [AMIODARONE]" result="Not Active"
molecule="CC(C)(Oc1ccc(Cl)cc1)C(=O)O [CLOFIBRIC ACID]" result="Not Active"
molecule="Nc1c2c(nc3ccccc13)CCCC2 [TACRINE]" result="Not Active"
molecule="CC1Cc2ccccc2N1NC(=O)c1ccc(Cl)c(S(N)(=O)=O)c1 (centres undefined) [INDAPAMIDE]" result="Not Active"
molecule="Cc1noc(NS(=O)(=O)c2ccc(N)cc2)c1C [SULFISOXAZOLE]" result="Not Active"
molecule="C[C@](N)(Cc1ccc(O)c(O)c1)C(=O)O [METHYLDOPA]" result="Not Active"
molecule="CC1(C)O[C@@H]2C[C@H]3[C@@H]4CCC5=CC(=O)CC[C@]5(C)[C@@]4(F)[C@@H](O)C[C@]3(C)[C@]2(C(=O)CCl)O1 [HALCINONIDE]" result="Not Active"
molecule="CC(NC(C)(C)C)C(=O)c1cccc(Cl)c1 (centres undefined) [BUPROPION]" result="Not Active"
molecule="c1ccc2c(c1)c1cccc3ccc4cccc2c4c31 [BENZO[E]PYRENE]" result="Not Active"
molecule="O=C(CCCN1CC=C(n2c(=O)[nH]c3ccccc32)CC1)c1ccc(F)cc1 [DROPERIDOL]" result="Not Active"
molecule="O=C(O)CCCc1ccc(N(CCCl)CCCl)cc1 [CHLORAMBUCIL]" result="Not Active"

Data provenance: ChEMBL document CHEMBL1909046
